target: T1, insulin (Sigma); assay: polyreactive ELISA, insulin coated, 100 nM antibody
T1 construct: Antigen of the polyreactivity ELISA
T1 sequence (P01308 25-54, chain 1 of 2): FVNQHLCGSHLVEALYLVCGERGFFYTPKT
T1 sequence (P01308 90-110, chain 2 of 2): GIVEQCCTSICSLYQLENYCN
Provide the reported polyreactivity ELISA score of each item.
Respond numerically, and do not add a unit to the figure.

**Query** Please report polyreactivity ELISA score for the following binder: CBD1033 whole antibody, human IgG1 with Fc-silencing mutations L234A, L235A and P329A (CBD1033-hIgG1-LALAPA) (antibody, V domains shown, On tLNPs the antibody was SATA-modified or AJICAP-thiolated (CBD1033.29) and conjugated to the LNP; also called CBD1033.3; CBD1033 IgG1) VH: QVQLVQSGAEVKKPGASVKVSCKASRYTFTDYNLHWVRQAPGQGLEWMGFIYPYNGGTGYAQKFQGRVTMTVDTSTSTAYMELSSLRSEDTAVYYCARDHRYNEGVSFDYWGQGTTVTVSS VL: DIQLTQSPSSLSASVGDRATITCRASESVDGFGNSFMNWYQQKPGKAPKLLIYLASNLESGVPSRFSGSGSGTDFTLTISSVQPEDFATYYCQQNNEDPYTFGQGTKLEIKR
**Result** 1

**Query** Please report polyreactivity ELISA score for the following binder: CBD1035 whole antibody, Fc-silenced human IgG1 (LALAPA) (antibody, V domains shown) VH: QVQLVQSGAEVKKPGASVKISCKASRYTFTDYNLHWVRQAPGQGLEWIGFIYPYNGGTGYAQKFQGRATLTVDTSTSTAYMELSSLRSEDTAVYYCARDHRYNEGVSFDYWGQGTTLTVSS VL: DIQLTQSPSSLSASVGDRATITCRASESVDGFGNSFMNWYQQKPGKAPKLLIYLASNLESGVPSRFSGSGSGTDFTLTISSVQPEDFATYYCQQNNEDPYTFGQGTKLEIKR
**Result** 1

**Query** Please report polyreactivity ELISA score for the following binder: CBD1032 whole antibody, Fc-silenced human IgG1 (LALAPA) (antibody, V domains shown) VH: QVQLVQSGAEVKKPGASVKVSCKASRYTFTDYNLHWVRQAPGQGLEWMGFIYPYNGGTGYAQKFQGRVTMTRDTSTSTVYMELSSLRSEDTAVYYCARDHRYNEGVSFDYWGQGTTVTVSS VL: DIQMTQSPSSLSASVGDRVTITCRASESVDGFGNSFMNWYQQKPGKAPKLLIYLASNLESGVPSRFSGSGSGTDFTLTISSLQPEDFATYYCQQNNEDPYTFGQGTKLEIKR
**Result** 1
